# Target system: GST-Hu-p50 (Homo sapiens, UniProt P19838 7-356)
# Sequence (P19838 7-356): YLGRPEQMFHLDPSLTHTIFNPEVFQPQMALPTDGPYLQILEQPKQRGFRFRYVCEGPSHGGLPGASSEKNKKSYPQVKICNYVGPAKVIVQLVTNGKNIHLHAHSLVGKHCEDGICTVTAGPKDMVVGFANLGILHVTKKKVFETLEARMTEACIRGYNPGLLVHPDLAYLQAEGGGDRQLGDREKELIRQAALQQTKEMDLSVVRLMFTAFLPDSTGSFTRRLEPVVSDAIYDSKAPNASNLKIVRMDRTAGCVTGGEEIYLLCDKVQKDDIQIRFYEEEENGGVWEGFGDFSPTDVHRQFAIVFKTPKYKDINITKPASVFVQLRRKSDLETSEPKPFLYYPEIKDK
# Assay text: protein-binding microarray (PBM); PBM: ~300 nM protein, 6 mM HEPES pH 7.8, 80 mM KCl, 0.5 mM EDTA, 0.5 mM EGTA, 6% glycerol, 35 ng/ul poly-dIdC, 1% milk, 1 h, room temperature; Ap Aiptasia and Nv Nematostella (sea anemones) / Co Capsaspora / Aq Amphimedon (sponge) / Dm Drosophila / Hu human; RHD is the Rel homology domain; high values mean tight binding
# Measurement context: dsDNA, one strand shown
Labelling: binding signal reported below 6 z-score becomes Fulfilled; at or above becomes Not fulfilled.

// below: answered sequences
Could you please tell me whether binding signal recorded for `CCGATTAACATCAGGAAATCCCCTGATGTTAATCGGGTCTTGATTCGCTTGACGCTGCTG` is less than 6 z-score?
Not fulfilled

Could you please tell me whether binding signal recorded for `CCGATTAACATCAAAAATTACCATGATGTTAATCGGGTCTTGATTCGCTTGACGCTGCTG` is less than 6 z-score?
Fulfilled

Could you please tell me whether binding signal recorded for `CCGATTAACATCAAAAGTCCCCATGATGTTAATCGGGTCTTGATTCGCTTGACGCTGCTG` is less than 6 z-score?
Not fulfilled

Could you please tell me whether binding signal recorded for `CCGATTAACATCAATACTCCCCCTGATGTTAATCGGGTCTTGATTCGCTTGACGCTGCTG` is less than 6 z-score?
Not fulfilled

Could you please tell me whether binding signal recorded for `CCGATTAACATCAGGATTGTCCCTGATGTTAATCGGGTCTTGATTCGCTTGACGCTGCTG` is less than 6 z-score?
Fulfilled

***
Could you please tell me whether binding signal recorded for `CCGATTAACATCAGGGGGGATACTGATGTTAATCGGGTCTTGATTCGCTTGACGCTGCTG` is less than 6 z-score?
Fulfilled

Could you please tell me whether binding signal recorded for `CCGATTAACATCAAACTCCCCCTTGATGTTAATCGGGTCTTGATTCGCTTGACGCTGCTG` is less than 6 z-score?
Not fulfilled

Could you please tell me whether binding signal recorded for `CCGATTAACATCAAGAAACCCCCTGATGTTAATCGGGTCTTGATTCGCTTGACGCTGCTG` is less than 6 z-score?
Not fulfilled

Could you please tell me whether binding signal recorded for `CCGATTAACATCAGGGGGAAACCTGATGTTAATCGGGTCTTGATTCGCTTGACGCTGCTG` is less than 6 z-score?
Not fulfilled

Could you please tell me whether binding signal recorded for `CCGATTAACATCACCCCACCCCCTGATGTTAATCGGGTCTTGATTCGCTTGACGCTGCTG` is less than 6 z-score?
Fulfilled

Could you please tell me whether binding signal recorded for `CCGATTAACATCAGGGGGGGACATGATGTTAATCGGGTCTTGATTCGCTTGACGCTGCTG` is less than 6 z-score?
Fulfilled

Could you please tell me whether binding signal recorded for `CCGATTAACATCAGAAAGCCCCCTGATGTTAATCGGGTCTTGATTCGCTTGACGCTGCTG` is less than 6 z-score?
Not fulfilled

Could you please tell me whether binding signal recorded for `CCGATTAACATCACCATTTCCCCTGATGTTAATCGGGTCTTGATTCGCTTGACGCTGCTG` is less than 6 z-score?
Fulfilled

Could you please tell me whether binding signal recorded for `CCGATTAACATCAAAAGTACCCCTGATGTTAATCGGGTCTTGATTCGCTTGACGCTGCTG` is less than 6 z-score?
Fulfilled

Could you please tell me whether binding signal recorded for `CCGATTAACATCAGGGAATTACCTGATGTTAATCGGGTCTTGATTCGCTTGACGCTGCTG` is less than 6 z-score?
Fulfilled

Could you please tell me whether binding signal recorded for `CCGATTAACATCAGGACTTTCCCTGATGTTAATCGGGTCTTGATTCGCTTGACGCTGCTG` is less than 6 z-score?
Fulfilled
